Test system: SW-620 colon
Experiment: NCI tumour cell line growth inhibition, 48 h; in the data active = GI50 below about 0.43 µM; inactive = the rest
Pick one: active, inactive

Reference set, count: 6
C#CC#CC#CC#CC#CC#CC#CC#CCC1OCC(COC(=O)O[C@@H](C(=O)O[C@H]2C[C@@]3(O)[C@@H](OC(=O)c4ccccc4)[C@@H]4[C@]5(OC(C)=O)CO[C@@H]5C[C@H](O)[C@@]4(C)C(=O)[C@H](OC(C)=O)C(=C2C)C3(C)C)[C@@H](NC(=O)c2ccccc2)c2ccccc2)O1 (some centres not stated) :: active
C=C1C(O)C2C(=C(CC)C13CC3)C(=O)C(C)(C)C2OC (configuration not stated) :: inactive
O=C(N/N=C/C=C/c1ccc([N+](=O)[O-])o1)c1cc2ccccc2cc1O :: inactive
COC1CC(O[C@H]2CC[C@@]3(C)[C@H](CC[C@@H]4[C@@H]3CC[C@]3(C)[C@@H](C5=CC(=O)OC5)[C@@H](OC(C)=O)C[C@]43O)C2)OC(C)C1O (some centres not stated) :: active
COc1ccc2c(c1)NC1=C(C(=O)OC1)C2c1cc(OC)c2c(c1)OCO2 (configuration not stated) :: active
Cc1c(Cl)cccc1C(=O)Nc1nc2c(s1)CN(C(=O)c1ccc(C(F)(F)F)cc1)CC2 :: active

Recorded call for "O=C1c2cc3c(cc2[C@@H]2[C@H]1c1ccc([N+](=O)[O-])cc1C(=O)N2CCCBr)OCO3" ?
active

Recorded call for "Cc1ccc(S(=O)(=O)c2c(COC(=O)c3cccc(C)c3)c(-c3ccccc3)nn2C)cc1" ?
inactive

Recorded call for "COc1ccc2c(CN3CCCC[C@H]3C(=O)O)cc3cc4c(cc3c2c1)OCO4" ?
active

Recorded call for "Cc1cc2c(C(C)C)c(O)c(O)cc2c(O)c1-c1c(C)cc2c(C(C)C)c(O)c(O)cc2c1O" ?
inactive

Recorded call for Nc1ncnc2c1N=C(c1ccc3c(c1)OCO3)CC(c1ccc([N+](=O)[O-])cc1)N2 (configuration not stated) ?
inactive

Recorded call for "C[C@H]1CC[C@@]2(NC1)O[C@H]1C[C@H]3[C@@H]4CC[C@H]5C[C@@H](O)CC[C@]5(C)[C@H]4CC[C@]3(C)[C@H]1[C@@H]2C" ?
inactive
